- test summary: Hepatocyte stability assay, human
- Assay type: in vitro ADME
- measurement context: human, hepatocytes, Hepatocyte stability Clint
Mark each entry 1.0 if its hepatocyte CLint at 10 μM sits below 10 µL/min/1e6 cells, and 0.0 for all others.

Example entries begin here.
>  <compound>
C=C(Cc1nc(CCCCCCCCC)no1)C(=O)O

>  <label value>
0.0

$$$$
>  <compound>
C=C(Cc1ncc(CCCCCCCC)o1)C(=O)O

>  <label value>
0.0

$$$$
>  <compound>
C=C(Cc1nc(Cc2cc(Cl)c(F)c(Cl)c2)no1)C(=O)O

>  <label value>
0.0

$$$$
>  <compound>
C=C(Cc1nc(Cc2ccc(OC(F)(F)C(F)F)cc2)no1)C(=O)O

>  <label value>
1.0

$$$$
>  <compound>
C=C(Cc1nc(C2(c3ccc(OC)cc3)CC2)no1)C(=O)O

>  <label value>
1.0

$$$$
>  <compound>
C=C(Cc1nc(C2(c3ccc(C(F)(F)F)cc3)CC2)no1)C(=O)O

>  <label value>
0.0

$$$$

Now look at this one.
Ask: Here's an entry: `C=C(Cc1nc(C2(c3ccc(SC(F)(F)F)cc3)CC2)no1)C(=O)O` . Is its hepatocyte CLint at 10 μM below 10 µL/min/1e6 cells?
Reply: 1.0

###

- Tested on: NRF2 (nuclear factor erythroid 2-related factor 2)
- test summary: NRF2 +/-GSH activation assay (DiscoverX PathHunter NRF2 translocation kit, U2OS cells)
- Format: cell-based
- measurement context: +GSH; 30 minute compound-GSH pre-incubation; read-out: NRF2 activation +GSH EC50
Field 'label' (enum: TRUE / FALSE). Set to TRUE when EC50 is strictly under 40 µM; else FALSE.

Reference set (3 entries):
>  <compound>
C=C(C(=O)O)C(O)c1nc(CCCCCCCC)no1 (centres unmarked)

>  <subject of test>
NRF2 (nuclear factor erythroid 2-related factor 2)

>  <label value>
TRUE

$$$$
>  <compound>
C=C(Cc1nc(C2(c3ccc(SC(F)(F)F)cc3)CC2)no1)C(=O)O

>  <subject of test>
NRF2 (nuclear factor erythroid 2-related factor 2)

>  <label value>
TRUE

$$$$
>  <compound>
C=C(Cc1nc(Cc2ccc(OC(F)(F)F)cc2)no1)C(=O)O

>  <subject of test>
NRF2 (nuclear factor erythroid 2-related factor 2)

>  <label value>
TRUE

$$$$

// switching to the query compound
Ask: Input `C=C(Cc1nc(C2(c3ccc(C(F)(F)F)cc3)CC2)no1)C(=O)O` ; condition: EC50 strictly below 40 µM. Does it hold?
Reply: FALSE

###

- Tested on: NRF2 (nuclear factor erythroid 2-related factor 2)
- test summary: NRF2 +/-GSH activation assay (DiscoverX PathHunter NRF2 translocation kit, U2OS cells)
- Format: cell-based
- measurement context: +GSH; normalised to DMF high control
Catalogue of NRF2 activation +GSH Emax values
Field: numeric (%). Do not append units.

>  <compound>
C=C(Cc1nc(Cc2ccc(OC(F)(F)F)cc2)no1)C(=O)O

>  <measure unit>
%

>  <NRF2 activation +GSH Emax>
51

$$$$
>  <compound>
C=C(Cc1nc(-c2ccc(OCCCC)c(C(F)(F)F)c2)no1)C(=O)O

>  <measure unit>
%

>  <NRF2 activation +GSH Emax>
114

$$$$
>  <compound>
C=C(Cc1nc(Cc2ccc(OCCCC)cc2)no1)C(=O)O

>  <measure unit>
%

>  <NRF2 activation +GSH Emax>
181

$$$$
>  <compound>
C=C(Cc1nc(C(C)(C)c2ccc(Cl)cc2)no1)C(=O)O

>  <measure unit>
%

>  <NRF2 activation +GSH Emax>
12

$$$$

In the following, a different molecule is considered.
Ask: Query (molecule): `C=C(Cc1ncc(CCCCCCCC)s1)C(=O)O` ; field requested: NRF2 activation +GSH Emax
Reply: 163
